Data credit: ChEMBL document CHEMBL1201862

test.details: C. albicans growth with fluconazole, confirmation, fluorescence, retest (AID 2467)
Assay type: functional, cell-based
Activity calls are given as the source filed them. Rule as the data show it: actives have a measured EC50 and inactives only a lower limit.
endpoint: EC50

Which value of EC50 has been reported for Cc1ccc(S(=O)(=O)C(C#N)c2nc3ccccc3nc2N2CCN(C)CC2)cc1C (configuration not stated) in the records?
> 38 µM (not active)

# lookup: EC50 of "O=Cc1ccc(O)c2ncccc12"
0.333 µM (active)

# lookup: EC50 of "CCN1/C(=C/C(C)=C/c2sc3ccccc3[n+]2CC)Sc2ccccc21"
0.051 µM (active)

Which EC50 value is on record for "COc1ccc(-c2cc(C(=O)NNC(=S)NC(=O)c3c(-c4ccccc4)noc3C)[nH]n2)cc1" ?
> 38 µM (not active)

I am curious: what EC50 value has been reported for Oc1c(C(Nc2cccc(C(F)(F)F)c2)c2cccnc2)ccc2cccnc12 (configuration not stated) ?
> 38 µM (not active)

Dear colleague, I am looking for the recorded EC50 of the following molecule: "COc1ccc(-c2nnc(NC(=O)c3ccc(S(=O)(=O)N4CCc5ccccc5C4)cc3)o2)cc1"
0.256 µM (active)

# lookup: EC50 of "CCn1c(=S)[nH]c2scc(-c3cccs3)c2c1=O"
1.23 µM (active)
